Read-out: Vascular cell adhesion molecule 1 (VCAM1), VCAM1 (gene 7412)
measurement-protocol: BSK_LPS_VCAM1: BioMAP Diversity Plus: LPS Assay for Vascular cell adhesion molecule 1 (VCAM1) Biomarker Activity (AID 2283086)
condition-description: primary human HUVEC with PBMC; actives raise or lower the signal
Calls of active or inactive are those of the source. Rule for the calls: active = hit-call score of the fitted dose curve at least 0.9, where 1 is the maximum; inactive = score below 0.9.
observed-property: AC50

Look over these answered cases.
Cc1[nH]c(=O)n(C(C)(C)C)c(=O)c1Cl = inactive
[2H]C1([2H])[n+]2ccccc2-c2cccc[n+]2C1([2H])[2H] = inactive
CC(C)(C)C(O)C(Oc1ccc(Cl)cc1)n1cncn1 (centres undefined) = inactive
CCOCN(C(=O)CCl)c1c(C)cccc1CC = 20 µM (active)
CCCN(CCOc1c(Cl)cc(Cl)cc1Cl)C(=O)n1ccnc1 = inactive

State recorded AC50 for all listed compounds.
1. O=C(O)C(F)(F)C(F)(F)C(F)(F)C(F)(F)C(F)(F)C(F)(F)C(F)(F)F
2. C[C@H]1[C@H](c2ccc(Cl)cc2)SC(=O)N1C(=O)NC1CCCCC1
3. N#Cc1c(Cl)c(Cl)c(Cl)c(C#N)c1Cl
4. O=[N+]([O-])/N=C1\NCCN1Cc1ccc(Cl)nc1
5. CCOc1nc(NC)nc(NC(=O)NS(=O)(=O)c2ccccc2C(=O)OC)n1
6. CCC(C)(C)C(=O)OC1=C(c2ccc(Cl)cc2Cl)C(=O)OC12CCCCC2
7. COP(=S)(OC)Oc1ccc([N+](=O)[O-])cc1
8. CNC(=O)CSP(=S)(OC)OC

Result:
1. inactive
2. 12.5 µM (active)
3. 0.773 µM (active)
4. inactive
5. inactive
6. 24.4 µM (active)
7. inactive
8. inactive

I would be grateful if you could provide AC50 for each of the following entries.
1. CNC(=O)Oc1cccc(N=CN(C)C)c1
2. CC(C)OC(=O)Nc1cccc(Cl)c1
3. C#CCN1C(=O)COc2cc(F)c(N3C(=O)C4=C(CCCC4)C3=O)cc21
4. CNC(=O)Oc1ccccc1OC(C)C
5. CCc1ccc(C(=O)NN(C(=O)c2cc(C)cc(C)c2)C(C)(C)C)cc1
6. COc1cc(OC)nc(NC(=O)NS(=O)(=O)c2cc(NC=O)ccc2C(=O)N(C)C)n1
7. OCCOc1ccccc1
8. N#CN

Result:
1. 17.4 µM (active)
2. inactive
3. inactive
4. inactive
5. inactive
6. inactive
7. inactive
8. inactive

Hi there! I need AC50 for each item below, if you can.
1. CCC(C)(NC(=O)c1cc(Cl)c(C)c(Cl)c1)C(=O)CCl (centres undefined)
2. COC(=O)c1ccccc1CS(=O)(=O)NC(=O)Nc1nc(OC)cc(OC)n1
3. CCC(C)Nc1c([N+](=O)[O-])cc(C(C)(C)C)cc1[N+](=O)[O-] (centres undefined)

Result:
1. 8.9 µM (active)
2. inactive
3. 22.8 µM (active)

---

Read-out: cysteine-aspartic acid protease (CASP8), CASP8 (gene 841)
measurement-protocol: LTEA_HepaRG_CASP8: Life Technologies and Expression Analysis (LTEA) Assay for cysteine-aspartic acid protease (CASP8) using HepaRG (AID 2283480)
condition-description: mRNA level, 48 h; actives raise or lower the signal
Activity calls are given as the source filed them. Rule for the calls: active = hit-call score of the fitted dose curve at least 0.9, where 1 is the maximum; inactive = score below 0.9.
observed-property: outcome

Look over these answered cases.
C#CCN1C(=O)COc2cc(F)c(N3C(=O)C4=C(CCCC4)C3=O)cc21 = inactive
CNC(=O)CSP(=S)(OC)OC = inactive
CCc1ccc(C(=O)NN(C(=O)c2cc(C)cc(C)c2)C(C)(C)C)cc1 = inactive
N#CN = inactive
O=C(O)C(F)(F)C(F)(F)C(F)(F)C(F)(F)C(F)(F)C(F)(F)C(F)(F)F = inactive
ClC1C(Cl)C(Cl)C(Cl)C(Cl)C1Cl (stereo unspecified) = inactive
Oc1ccc(Cl)cc1Cc1ccccc1 = inactive
Oc1cc(Cl)ccc1Oc1ccc(Cl)cc1Cl = inactive

# map each molecule to its outcome
1. CCC(C)Nc1c([N+](=O)[O-])cc(C(C)(C)C)cc1[N+](=O)[O-] (stereo unspecified)
2. CCOC1Oc2ccc(OS(C)(=O)=O)cc2C1(C)C (stereo unspecified)
3. CNC(=O)Oc1ccccc1OC(C)C

Result:
1. inactive
2. inactive
3. inactive
